System: HT-29
PROTOCOL: NCI tumour cell line growth inhibition, 48 h
Active and inactive are the calls of the source. No stated cut-off is given here; in the data, active = GI50 up to about 1.1 µM and inactive = higher. Non-standard residues stand in square brackets, D forms with d. Residues, ends and D or L forms follow the SMILES beside them. *: point of attachment. Ac5c = NC1(C(=O)O)CCCC1; Boc = CC(C)(C)OC(=O)*; tBu = CC(C)(C)*
Hi there, use one of these labels in your reply, thanks! T = active, F = inactive

Ask: Per the assay record, what outcome was assigned to CC(=O)OCCOCNC(=S)N/N=C(\C)c1cnc2ccccc2n1 ?
Result: F

Ask: Tell me the assay call for OCCCNc1[nH]cnc2nncc1-2 please.
Result: F

Ask: Query: recorded result category for COC(=O)Cc1cccc2c(=O)c(S(=O)(=O)NC(=O)Nc3ccc(Cl)cc3)c(-c3ccccc3)oc12 in this test
Result: F

Ask: Answer briefly: the call reported for CC1S(=O)(=O)OCCOS1(=O)=O in this assay.
Result: F

Ask: Dear colleague, could you share the recorded outcome for CC(=O)O[C@H]1C(=O)[C@@]2(C)[C@H]([C@H](OC(=O)c3ccccc3)[C@]3(O)C[C@H](OC(=O)[C@H](O)[C@@H](NC(=O)c4ccoc4)c4ccccc4)C(C)=C1C3(C)C)[C@]1(OC(C)=O)CO[C@@H]1C[C@@H]2O when you have a moment?
Result: T

Ask: Per the assay record, what outcome was assigned to CSC(C1c2ccccc2N(C)c2[nH]c(=O)n(C)c(=O)c21)S(=O)(=O)c1ccc(C)cc1 (centres undefined) ?
Result: F

Ask: Hi, do you know how O=C(CSc1nnc(Cc2ccccc2)o1)Nc1ccc([N+](=O)[O-])cc1 came out in this test?
Result: F

Ask: Write down the call the test reported for this molecule. Item: CCC1=CCC23C(=O)C=CC(=O)C2(C1)C(=O)c1cccc(OC)c1C3=O (centres undefined)
Result: F

Ask: Recorded test call requested for CC1=C(c2cc(C(=O)Nc3cccc(C(F)(F)F)c3)nc(NC#N)n2)Sc2ccccc2N1
Result: F

Ask: Record request — test call for CN1CCN(CCCN2c3ccccc3Sc3ccc(C(F)(F)F)cc32)CC1
Result: F

Ask: Record request — test call for COc1c(-c2nc3ccc(N4CCN(C)CC4)nc3[nH]2)cc(OC)c2c1nc(CO)n2C
Result: F

Ask: Recorded test outcome, item CCCC(O)[C@@]1(CC)CC(C)C(O)(C2(C)C[C@H](C)[C@@H](C(CC)C(=O)C(C)[C@@H](O)[C@H](C)C3OC(O)(C(CC)C(=O)O)[C@@H](C)C(O)C3CC)O2)O1 (some centres undefined)
Result: T

Ask: Any idea what this test logged for O=C1/C(=C/c2ccc(Br)s2)NC(=S)N1CN1CCCCC1 ?
Result: F

Ask: Hi, do you know how CC(=O)Nc1ccc(C(=O)NN2C(=O)C(Cl)C2c2cc(Br)ccc2O)cc1 (centres undefined) came out in this test?
Result: F

Ask: Outcome logged for CC1OC(=O)c2ccccc2NC1=O (centres undefined) in this assay:
Result: F

Ask: Hi, sorry to bother you, what did the test record for COc1ccc(C=O)c(NC(=O)C(C)C)c1 ?
Result: F

Ask: Call for entry Cn1cc2c(n1)c(N/N=C/c1ccccc1)nn1nnnc21 :
Result: F

Ask: What was the test verdict on Cc1ccc(S(=O)(=O)N/C(=C\C=C\c2ccccc2)C(=O)C(C)(C)C)cc1 ?
Result: F

Ask: Could you kindly confirm the outcome this assay logged for COc1ccc(/N=C2\S/C(=N\C(=N\c3ccccc3)SCc3ccccc3)N(c3ccccc3)\C2=N/c2ccc(OC)cc2)cc1 ?
Result: F

Ask: Field: outcome | Entry: CCc1cccc(C(C)C)c1NC(=O)C(=O)C1C(=O)Nc2ccccc2[S+]1[O-] (centres undefined)
Result: F

Ask: I would be grateful if you could indicate the recorded call for CC(OC(C)(C)C)C1NC(=O)C(CCCCNC(=O)OC(C)(C)C)NC(=O)C(Cc2c[nH]c3ccccc23)NC(=O)C(Cc2ccccc2)NC(=O)C2(CCCC2)NC(=O)C(Cc2ccccc2)NC1=O (centres undefined) (cyclo([Ac5c]FWK(Boc)T(tBu)F); configuration not given here) .
Result: F

Ask: // param item: COc1ccc(NCC#N)cc1 ; yields the recorded call
Result: F

Ask: # outcome recorded in this test, key = COC(=O)C1(F)C(=O)NC(=O)NC1OC (centres undefined)
Result: F

Ask: What did the test return for FC(F)(F)c1nc(-c2ccccc2)oc1Sc1oc(-c2ccccc2)nc1C(F)(F)F ?
Result: F

Ask: // outcome(item) with item = CC(CC(=O)O)(CC(=O)O)C(=O)O
Result: F

Ask: Status in this test for CCc1ccc(NCc2cc(OC)c(OC)c(OC)c2)cc1 ?
Result: T

Ask: Tell me the recorded outcome of this test for O=C1C2Nc3ccccc3SC2C(=O)N1c1ccccc1C(F)(F)F (centres undefined) .
Result: F

Ask: Please let me know the test result on file for C[C@]12CCC(=O)CC1CCCC2=O (some centres undefined) .
Result: F

Ask: Record lookup: outcome of this test for N=C(N)NS(=O)(=O)c1ccc(NC(=O)c2cccc3c(NNc4ccc(S(N)(=O)=O)cc4)c4ccccc4nc23)cc1 ?
Result: F

Ask: How did this test come out for COc1ccccc1Nc1nc(NNC(=O)Cc2ccccc2)nc(NNC(=O)c2ccncc2)n1 ?
Result: F

Ask: I'd appreciate the recorded outcome for CC1CN(c2cc3c(cc2F)c(=O)c(C(=O)O)cn3-c2ccc(F)cn2)CC(C)N1 (centres undefined) from this test.
Result: F

Ask: Per the records of this test, what outcome belongs to CCn1nc2c3c(ncn3C(C)(C)O2)c1=O ?
Result: F

Ask: Lab log entry: Cc1ccc2c(c1)C=CC1(O2)N(c2ccccc2)C(=S)OC1(C)C (centres undefined) — outcome as called in the assay?
Result: F

Ask: Could you check what this test reported for Cc1ccc(S(=O)(=O)Nn2c(-c3ccccc3)c(C#N)c(-c3ccc([N+](=O)[O-])cc3)c(C#N)c2=O)cc1 ?
Result: F

Ask: State the result this test recorded for COC(=O)C(C(=O)C(=O)Nc1c(C)cccc1C(C)(C)C)c1nc2ccc(Cl)cc2nc1O (centres undefined) .
Result: F

Ask: Check the results log: what was the call for CC(C)C(=O)CP(=O)(O)O ?
Result: F

Ask: Would you mind telling me which call this test gave O=[N+]([O-])c1ccc(C(O)(C#CCN2CCCC2)c2ccccc2)cc1 (centres undefined) ?
Result: F

Ask: Check the results log: what was the call for CCOC(=O)C(O)(CC1=NC(C(=O)OC)(C(=O)OC)C(c2cccc(C=O)c2)O1)C(=O)OCC (centres undefined) ?
Result: F

Ask: So what was the verdict on Nc1ccn(C2C=C(CO)C(O)C2O)c(=O)c1 (centres undefined) in this test?
Result: F
